Tested on: erythrocytes
Format: cell-based, human
Conditions: pH 7.6
*1 amine or outer side, *2 acyl side, *3 side chain or, on linkers, in order; H or OH if unused. Where a SMILES comes first, the peptide text is derived from it. Bridges are numbered along the chain shown (N, C = ends). [ ]: non-standard residue; d: D form. X2 = CC12SC(C(=O)NN[*:2])=CC1=C1CCCC1=C1C=C(C(=O)[*:1])SC12C; X1 = Cc1sc(C(=O)NN[*:2])cc1C1=C(c2cc(C(=O)[*:1])sc2C)CCC1; Orn = NCCC[C@H](N)C(=O)O
quantity-name: H50 (50% of hemolysis)

compound="CC(C)C[C@@H]1NC(=O)[C@H](CCCN)NC(=O)[C@H](C(C)C)NC(=O)[C@@H]2CCCN2C(=O)C2=CC3=C4CCCC4=C4C=C(SC4(C)C3(C)S2)C(=O)NNC(=O)[C@H](CCCN)NC(=O)[C@H](C(C)C)NC(=O)[C@@H]2CCCN2C(=O)[C@@H](Cc2ccccc2)NC1=O (stereo partly drawn) [GS-Sw(LF), “closed”, cyclo(^DFPVO-1b-PVOL)] (PV[Orn]L[dF]PV[Orn]; linker N-C via X2)" quantity_name="H50 (50% of hemolysis)" test_value=">>128 μg/ml"
compound="Cc1sc2cc1C1=C(CCC1)c1cc(sc1C)C(=O)N[C@@H](CCCN)C(=O)N[C@@H](CC(C)C)C(=O)N[C@H](Cc1ccccc1)C(=O)N1CCC[C@H]1C(=O)N[C@@H](C(C)C)C(=O)N[C@@H](CCCN)C(=O)N[C@@H](CC(C)C)C(=O)N[C@H](Cc1ccccc1)C(=O)NNC2=O [GS-Sw(PV), “open”, cyclo(^DFPVOL^DF-1b-OL)] ([Orn]L[dF]PV[Orn]L[dF]; linker N-C via X1)" quantity_name="H50 (50% of hemolysis)" test_value="6 µg/mL"
compound="CC(C)C[C@@H]1NC(=O)[C@H](CCCN)NC(=O)[C@H](C(C)C)NC(=O)[C@@H]2CCCN2C(=O)[C@@H](Cc2ccccc2)NC(=O)[C@H](CC(C)C)NC(=O)[C@H](CCCN)NC(=O)[C@H](C(C)C)NC(=O)C2=CC3=C4CCCC4=C4C=C(SC4(C)C3(C)S2)C(=O)NNC1=O (stereo partly drawn)" quantity_name="H50 (50% of hemolysis)" test_value="72 µg/mL"
